molecular target: human GLP-1 receptor (human, UniProt P43220 24-463); assay: cell-based or functional assay
*1 amine or outer side, *2 acyl side, *3 side chain or, on linkers, in order; H or OH if unused. Where no end group is shown, it is not given here. Side-chain parts run from the residue outwards. [ ]: non-standard residue; d: D form. The star is where a group is joined. Undecanoyl(11-OPh(4-COOH)) = O=C(O)c1ccc(OCCCCCCCCCCC(=O)*)cc1; Decanoyl(10-(4-HOOC-PhO)) = O=C(O)c1ccc(OCCCCCCCCCC(=O)*)cc1; γGlu = O=C(O)[C@H](CCC(=O)[*:2])N[*:1]; 13‑carboxytridecanoyl = C14 diacid; AEEA = NCCOCCOCC(=O)O; Aib = CC(C)(N)C(=O)O
Recorded In vitro potency (CRE-luciferase) low albumin EC50 for the following binders
Readout type: In vitro potency (CRE-luciferase) low albumin EC50 (nM)

{"columns": ["Binder", "U", "Assay result"],
 "data": [
  ["H[Aib]EGTFTSDVSK([AEEA-AEEA-γGlu-Decanoyl(10-(4-HOOC-PhO))])YLEEQAAK([AEEA-AEEA-γGlu-Decanoyl(10-(4-HOOC-PhO))])EFIAWLVQGRG [Comparative compound of Example 7a: Compound of Example 2, Chem. 21, in WO 2012/062803]", "nM", 0.017],
  ["HXEGTFTSDVSSYLEGQAAKEFIAWLVRGRK (Aib at 8; eps-amino of Lys26 and Lys37 each acylated with 12-(4-carboxyphenoxy)dodecanoyl-gGlu-Ser-Gly-Ser-eps-Lys)", "nM", 0.005],
  ["H[Aib]EGTFTSDVSK([Ser-Ser-Ser-Ser-Ser-Ser-γGlu-Undecanoyl(11-OPh(4-COOH))])YLEGQAAK([Ser-Ser-Ser-Ser-Ser-Ser-γGlu-Undecanoyl(11-OPh(4-COOH))])EFIAWLVQGRG", "nM", 0.0083],
  ["H[Aib]EGTFTSDVSK([AEEA-AEEA-γGlu-13‑carboxytridecanoyl])YLEGQAAK([AEEA-AEEA-γGlu-13‑carboxytridecanoyl])EFIAWLVQGRG [Comparative compound of Example 22a: Compound of Example 141, Chem. 189, in WO 2012/062803]", "nM", 0.174],
  ["HAEGTFTSDVSK([AEEA-AEEA-γGlu-Decanoyl(10-(4-HOOC-PhO))])YLEEQAAK([AEEA-AEEA-γGlu-Decanoyl(10-(4-HOOC-PhO))])EFIAWLVQGRG [Comparative compound of Example 5a: Compound of Example 38, Chem. 57, in WO 2012/062803]", "nM", 0.025],
  ["H[Aib]EGTFTSDVSK([Gly-Ser-Ser-Gly-Ser-Ser-γGlu-Undecanoyl(11-OPh(4-COOH))])YLEGQAAK([Gly-Ser-Ser-Gly-Ser-Ser-γGlu-Undecanoyl(11-OPh(4-COOH))])EFIAWLVQGRG", "nM", 0.0056]
]}
